Hello, the source for this data is the domain aggregation screens of Martell et al. (2025), in case you need it.

experiment: soluble fraction after stress (log2 fold change); higher = more stays soluble; pooled small domains, quantitative proteomics; conditions: stress: pH 4
soluble fraction (log2) values for the sequences below.
Reported property: soluble fraction (log2)

• HMLGVLEYYNNGQKKSERTFKGGMQIYTEWYENGQMKAEERKWIDQLGSLKFLNLLSTEWDENGNEISRME = -1.28
• HMAPLATIHVSSLSQKPFYLYGTFEDRRGNHLFFLEQIMGENKSIPVAMPSSAINPKIHASLTPPKG = -0.0804
• HMAHLNYQTVDINALIRHSLQLVSQDAQSRGIALQFTPRPELTTISADPDRLNQVLLNLYLNAMQD = -0.205
• HMRVDRSALDSIPGVGPGRKRTLLHHFGSARAVEASGLADLESIRGISKALARKIYDFFHPE = 0.161
• HMPTLLGYKHILSAWNPDTNTVFRTSYGYDGEYGSREEAMQALIKMIQEGGKATPRGIEESEVPIY = 0.0029
• HMSFNNHYEILQVQPSADREVIEAAAKALLKKHHPDLGGRNTITSHIVQAKKVLTDTSQRADFDARLRERL = 0.165
• HMSETEEWTVEGGQAGDRIDRHVAAMLGDDVSRSQVQQWIRAGRVTVNGRAVKPSDTVEEGDRVAVDLPEP = -0.397
• HMSEIVEEQNTKLKQAVSKLSKRQQEVLYLKFEEGLDYEQISKIMDLKYQSVRNLVSTAIIKIKEH = 0.0707
• HMDSTSEILKVIQNIVKKEDPYHPLSDDKISNLLNDLDYQISRRTVAKYRDILTIPSSSKRRKL = -0.0776
• HMKVSNWYFNGAPSATTPPTSQWTTEKDKKAHIGDTFTSLDKSPSPNAGKSWRYTPSYTWEEIV = 0.0965
• HMGVDIAEHDGQPAVSIRKGAAESVAQWVKDQGGTFPQEVEMTVQNVARAGGTPLVVARGRDVLGVIYLKD = -0.281
• HMQQNYREMHKVKKGETLFGIARRYEITVDQLIKANPDMNAVGYELKKGDYIFIPYPDGQKP = -0.116
• HMDRSIGDIIAELRDLSAEQVERVLAHQRETGVRFGEAAVALGYASKEDVLFALSQQFHYPYAPEE = -0.946
• HMDAQNLQDQLFGFLKANPTQAYPAQTLADGLRLDDANAFTKVVQALAALERGGKVKVNEEGAFQYDAEK = -0.0669
• HMKYTVKSPLPGVIMSVLVKVGDTVKASDTVISLEAMKMENAIHAGRDGKVTSIDVNVGDSVLEGHTLVTI = -1.04
• HMRPTDVLNYDESMRILNFSNNRVGFKHLMDAKGIEQVIFKNRKIGYRKSEILALKSELEAEQK = -0.0346
• HMQQLAEQIPTDRPYISIAEAVVLFGISRDTIYRQIRKGNIPAVNLGERLTRISRIHIEAMFPKV = -0.282
• HMDRFVLQLSKRYYDSSIEGVRKALAAFPVKTELLDQDRGGRPFYHENGKENEPVFRIMFHPEEGM = -0.116
• HMDHWQSVNSALELLEVSRRTLYDYISRKKLQTKKEGKYRYVWIDDDVIEEIKTSKSAYIEINN = -1.08
• HMPKTLTEAAYEDIKQWILEGEITPGSKISLEDTASRLEVSMTPIREALTKLQQEGLVEYIPRAGWRASK = -0.294
• HMEDLAERLDNLSTMYAKMDPVRAAQVLLESKNKSENIEVLKRLKPKSLGLILENMPPREAYDYVSELQ = 0.0298
• HMKKEQVIVPNVVGDTYDVALRKLTDAKLKVGETFPADREGHQGVIEKQSPAAGETVDEDTPVALFFKV = -0.384
• HMQISMQNIASVKIDDLSDEQIQEFSTKYTAAGYSFPDVENVAKQKGMPSSEIEKLRQRVLTAQNTQEK = -0.346
• HMSDYYEVLGVTRQADAEEIKRAYRRKARQLHPDVAGPGHEEEFKEVTVAYEVLSDPEKRQAYDLGGQDAL = 0.0614
• HMKSSLAKNLETLMQERQISQTRLSKISGVSQSYIFKILNDQIKKPSLDTLEKLATALDSTVAQLNH = 0.191
• HMLTEERLQIITDTVNSRSSVTIAELSRILDVSPSTVKRDLNILAEAGKITKVRGGAIALGE = 0.164
• HMDRENNITAGREILEKELSRLALNMKMVNLQDYAARFNVKHSDDILAGIGAGDIRPAHIVNAIAEKLT = -0.304
• HMSFVDFYGLFTTELQRLAELPVTADELIKNTGLHKSQLTDWLKRAEEDGVVKKLNRPVRYQVEKK = -0.989
• HMGDTIFINNNFYVKHIVEFGETIDIISKIYDVSVNKILETNETSTKLYSGQSLFIPININV = -1.99
• HMVNFKLIGNKIAEARKKVNISQAQLAQRLFISSQAVGKWERGESMPDIITFNRLAEILGVDLNYFSE = 0.266
• HMAEAPGSVELLAERLRPWWEIHGGEWGSKTKALRFLFGDQAPVAGSYWRALEAAIAQIESTT = -0.108
